- testTarget: Clostridium difficile toxin B, soluble full-length (TechLab) (Clostridium difficile, UniProt P18177 2-2366)
- Sequence (P18177 2-2366 limits assumed): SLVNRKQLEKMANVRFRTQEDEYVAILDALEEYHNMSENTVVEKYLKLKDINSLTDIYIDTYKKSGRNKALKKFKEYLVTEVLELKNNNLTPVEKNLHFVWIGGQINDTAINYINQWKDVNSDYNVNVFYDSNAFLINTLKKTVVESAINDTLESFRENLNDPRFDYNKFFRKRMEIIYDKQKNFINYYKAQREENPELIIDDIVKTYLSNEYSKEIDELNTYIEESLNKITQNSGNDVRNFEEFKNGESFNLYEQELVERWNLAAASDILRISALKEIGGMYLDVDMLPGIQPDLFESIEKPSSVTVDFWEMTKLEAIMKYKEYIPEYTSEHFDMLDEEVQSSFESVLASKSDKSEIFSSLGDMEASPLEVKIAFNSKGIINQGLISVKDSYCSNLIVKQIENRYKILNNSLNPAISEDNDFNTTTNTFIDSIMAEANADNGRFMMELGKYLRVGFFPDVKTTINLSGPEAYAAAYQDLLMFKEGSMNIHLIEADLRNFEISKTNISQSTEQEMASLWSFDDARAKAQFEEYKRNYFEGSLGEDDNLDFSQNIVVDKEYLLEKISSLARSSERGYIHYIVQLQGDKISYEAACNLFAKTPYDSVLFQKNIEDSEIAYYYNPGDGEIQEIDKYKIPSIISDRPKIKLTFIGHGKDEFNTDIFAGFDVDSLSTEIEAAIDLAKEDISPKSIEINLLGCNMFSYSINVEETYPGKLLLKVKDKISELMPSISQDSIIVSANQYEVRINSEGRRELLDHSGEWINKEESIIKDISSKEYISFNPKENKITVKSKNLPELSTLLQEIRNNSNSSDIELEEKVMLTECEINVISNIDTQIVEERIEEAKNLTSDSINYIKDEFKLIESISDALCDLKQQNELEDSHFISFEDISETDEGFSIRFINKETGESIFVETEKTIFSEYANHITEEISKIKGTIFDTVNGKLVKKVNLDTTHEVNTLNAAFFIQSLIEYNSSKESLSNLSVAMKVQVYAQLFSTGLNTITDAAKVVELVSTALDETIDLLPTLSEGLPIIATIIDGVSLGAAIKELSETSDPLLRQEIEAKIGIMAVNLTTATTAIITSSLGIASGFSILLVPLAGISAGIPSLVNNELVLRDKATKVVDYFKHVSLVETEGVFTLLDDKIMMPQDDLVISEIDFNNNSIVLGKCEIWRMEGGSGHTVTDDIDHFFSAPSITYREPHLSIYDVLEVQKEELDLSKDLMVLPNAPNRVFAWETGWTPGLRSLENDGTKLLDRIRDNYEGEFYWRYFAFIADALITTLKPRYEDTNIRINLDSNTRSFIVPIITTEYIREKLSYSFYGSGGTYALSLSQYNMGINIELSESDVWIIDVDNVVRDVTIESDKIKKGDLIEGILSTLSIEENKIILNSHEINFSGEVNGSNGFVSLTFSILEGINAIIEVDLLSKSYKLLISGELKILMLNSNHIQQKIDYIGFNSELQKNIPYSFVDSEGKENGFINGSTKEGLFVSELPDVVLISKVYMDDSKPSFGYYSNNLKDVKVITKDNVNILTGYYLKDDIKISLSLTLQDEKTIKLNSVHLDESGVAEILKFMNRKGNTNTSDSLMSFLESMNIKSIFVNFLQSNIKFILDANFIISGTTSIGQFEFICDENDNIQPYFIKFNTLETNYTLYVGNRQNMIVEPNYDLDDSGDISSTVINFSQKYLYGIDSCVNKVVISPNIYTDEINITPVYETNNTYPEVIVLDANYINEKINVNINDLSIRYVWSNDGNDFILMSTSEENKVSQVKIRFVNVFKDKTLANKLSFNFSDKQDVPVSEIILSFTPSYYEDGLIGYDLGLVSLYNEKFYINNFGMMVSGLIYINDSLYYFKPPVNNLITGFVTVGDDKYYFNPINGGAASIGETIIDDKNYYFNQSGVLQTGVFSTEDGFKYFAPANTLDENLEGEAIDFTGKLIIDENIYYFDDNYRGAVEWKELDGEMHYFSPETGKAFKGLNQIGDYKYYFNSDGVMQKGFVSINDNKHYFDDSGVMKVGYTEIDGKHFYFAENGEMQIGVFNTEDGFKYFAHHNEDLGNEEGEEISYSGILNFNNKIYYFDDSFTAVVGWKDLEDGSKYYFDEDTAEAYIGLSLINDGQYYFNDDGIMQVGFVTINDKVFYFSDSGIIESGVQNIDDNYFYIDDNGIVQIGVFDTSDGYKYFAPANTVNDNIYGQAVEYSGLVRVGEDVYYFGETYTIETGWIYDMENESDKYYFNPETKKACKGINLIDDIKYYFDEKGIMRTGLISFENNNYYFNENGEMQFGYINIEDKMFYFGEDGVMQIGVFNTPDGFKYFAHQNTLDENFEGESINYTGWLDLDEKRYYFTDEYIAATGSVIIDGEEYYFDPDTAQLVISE
- testDescription: cell-based or functional assay
Here the recorded IC50, Vero cell viability (neutralization), Trial 3, 0.03 pM Toxin B is given for each entry.
Write it as a number; the unit pM goes unstated.

| binder | unitAnnotation | observed |
| --- | --- | --- |
| H1H3337P (antibody, V domains shown) VH: EVQLVESGGGLVQPGGSLRLSCAASGFTFSIYAMSWVRQAPGKGLEWVSGISGSGGRTYYADSVKGRFTISRDNSKNTLYLQMNSLRVEDTAVYYCARGWELLNFWGQGTLVTVSS VL: DIQMTQSPSSLSASVGDRVTITCRASQGISNNLAWFQQKPGKAPKSLIYAASSLKSGVPSKFSGSGSGTDFTLTINSLQPEDFATYYCHQYNSYPPTFGPGTKVDIKR | pM | 320 |
| H1H3347P (antibody, V domains shown) VH: EVQLVESGGGLVQPGGSLRLSCVASGFTFTSYAMSWVRQAPGRGLQWVSAIGGSGDSIYYADSVKGRFTISRDNSKNTLYLQMDSLRAEDTAVYYCARGWELLNYWGQGTLVTVSS VL: DIQMTQSPSSLSASVGDRVTITCRASQDIGNFLAWFQQKPGKAPKSLIYAASSLKSGVPSKISGSGSGTDFTLTINSLQPEDFATYYCQQYNIYPPTFGPGTKVDIKR | pM | 25 |

Looking up H1H3344P (antibody, V domains shown) VH: EVQLVESGGGLVQPGGSLRLSCAASGFTFKIYAMSWVRQGPGKGLEWVSAISGNGDKTYYTDSVQGRFTISRDNSKNTLFLQMNSLRAEDTAIYYCARGWELLNYWGQGTLVTVSS VL: DIQMTQSPSSLSASIGDRVTITCRASQDISNSLAWFQQKPGKAPKSLIYAASSLQSGVPSRFSGSGSGTDFTLTISSLQPEDFATYYCQQYIPFPPTFGPGTKVDIKR , I see its IC50, Vero cell viability (neutralization), Trial 3, 0.03 pM Toxin B listed as 40
